protein stability index by entry:
# Test: protein stability index of a GFP-peptide fusion (yeast GPS) (PSI 1-4); higher = more stable; sorted into four equal gates, so the index is relative within each strain
# Experimental setup: pdr5∆

>  <Ordered residues>
EGNAQLVAIFGGQGNTD [FAS1]

>  <protein stability index>
1.94

$$$$
>  <Ordered residues>
MEDEILSLGMDFIKFDQ [BRN1]

>  <protein stability index>
3.35

$$$$
>  <Ordered residues>
YESRNVAKRRFEYSKYR [RRP6]

>  <protein stability index>
3.4

$$$$
>  <Ordered residues>
KIDIIELQKSLSLEEVE [FAS1]

>  <protein stability index>
2.62

$$$$
>  <Ordered residues>
NKKSEENEMIKPMNKGQ [SWP82]

>  <protein stability index>
3.41

$$$$
>  <Ordered residues>
PPGLDALVKPETQFKLS [CDC53]

>  <protein stability index>
2.84

$$$$
>  <Ordered residues>
DSNMDSISSVVSEDLLD [RPN4]

>  <protein stability index>
2.31

$$$$
>  <Ordered residues>
SASPHLAPNMQLNGNET [SNF2]

>  <protein stability index>
2.96

$$$$
>  <Ordered residues>
SFNMAQIPQQLYQSLTP [SNF5]

>  <protein stability index>
2.35

$$$$
>  <Ordered residues>
AQTIGRNSKTVREFLEK [PRE6]

>  <protein stability index>
3.27

$$$$
>  <Ordered residues>
TPATIVKKPTFTFGQST [YOR098C/NUP1]

>  <protein stability index>
3.13

$$$$
>  <Ordered residues>
VEEDHTLGNALRYVIMK [RPC19]

>  <protein stability index>
2.75

$$$$
>  <Ordered residues>
CVDDNSKISFIDEDKLY [SSN2]

>  <protein stability index>
2.98

$$$$
>  <Ordered residues>
SVVRVLVHTQIRKTPLA [RPL3]

>  <protein stability index>
1.35

$$$$
>  <Ordered residues>
TTLHGPGFQLPNRITLT [SRB8]

>  <protein stability index>
2.84

$$$$

----------
# Test: protein stability index of a GFP-peptide fusion (yeast GPS) (PSI 1-4); higher = more stable; sorted into four equal gates, so the index is relative within each strain
# Experimental setup: pdr5∆

>  <Ordered residues>
PKKHLSETADETLENNI [RPN11]

>  <protein stability index>
3.13

$$$$
>  <Ordered residues>
FKLSSESVIEQIVKYAR [RPS13]

>  <protein stability index>
2.97

$$$$
>  <Ordered residues>
DNDSLTDLESLSSGESN [SIR4]

>  <protein stability index>
3.31

$$$$
>  <Ordered residues>
ITIDSVVDANGCVNSLI [YMR129W/POM152]

>  <protein stability index>
2.91

$$$$
>  <Ordered residues>
DGNNANYIYAGYENGML [RPN14]

>  <protein stability index>
2.75

$$$$
>  <Ordered residues>
QSSLDVAGLEDKFRKAC [SIR3]

>  <protein stability index>
3.18

$$$$
>  <Ordered residues>
PLVLLQQIPLLCYMAPM [POP3]

>  <protein stability index>
1.59

$$$$
>  <Ordered residues>
DEKGNEIKVGKQRFQGC [ARP9]

>  <protein stability index>
3.1

$$$$
>  <Ordered residues>
VKCEELSNTLACYRTIM [RRP40]

>  <protein stability index>
2.49

$$$$
>  <Ordered residues>
VFKTHSYRGVDLEKLLE [RPS15]

>  <protein stability index>
3.18

$$$$
>  <Ordered residues>
NKIINWEISNPDFLSKY [NUT1]

>  <protein stability index>
2.41

$$$$
>  <Ordered residues>
QQSTDADEDDEDAKYVI [RPT1]

>  <protein stability index>
3.56

$$$$
>  <Ordered residues>
TEDIRIRAQNFKSALAN [RRP6]

>  <protein stability index>
2.41

$$$$
>  <Ordered residues>
KANISLETLEHNGAPHH [RPO21]

>  <protein stability index>
3.05

$$$$
>  <Ordered residues>
SNTTTQIQFTPLIKKIK [SMC3]

>  <protein stability index>
2.46

$$$$
>  <Ordered residues>
IIRQLSELNEGNLSKRE [SRB8]

>  <protein stability index>
3.53

$$$$
>  <Ordered residues>
KGNVGFVFTNEPLTEIK [RPP0]

>  <protein stability index>
3.06

$$$$
>  <Ordered residues>
SLVNSYIIDSPQPSSIN [COB]

>  <protein stability index>
1.59

$$$$
>  <Ordered residues>
DSFKYEPLAPGNDNLIK [YLR335W/NUP2]

>  <protein stability index>
2.75

$$$$
>  <Ordered residues>
ARVSPRNNVANKQPRNE [YAR002W/NUP60]

>  <protein stability index>
3.78

$$$$
>  <Ordered residues>
EKIDGMDVDSVKTTLVS [RPC82]

>  <protein stability index>
2.78

$$$$
>  <Ordered residues>
TSIEKSSEILSYLSNSL [YML103C/NUP188]

>  <protein stability index>
2.57

$$$$
>  <Ordered residues>
RCNDNLMRSCFYLMVSS [YJL039C/NUP192]

>  <protein stability index>
1.72

$$$$
>  <Ordered residues>
MSDHSLDKLNCAINSKS [RRP6]

>  <protein stability index>
2.8

$$$$
>  <Ordered residues>
NPNTNTNSNNTPLQSQL [PGD1]

>  <protein stability index>
2.96

$$$$
>  <Ordered residues>
GIRIKGKIVGFDEFMNV [SME1]

>  <protein stability index>
2.96

$$$$
>  <Ordered residues>
ISNNLALVFAALEHLKN [SRP68]

>  <protein stability index>
1.8

$$$$
>  <Ordered residues>
ELLDFLTSNLSNYSRTM [YJL039C/NUP192]

>  <protein stability index>
2.54

$$$$
>  <Ordered residues>
FGTGKRLAKKVARRNAD [RPS24A]

>  <protein stability index>
3.31

$$$$
>  <Ordered residues>
SEHFDVNDNPDIEAGDD [DIS3]

>  <protein stability index>
2.93

$$$$
>  <Ordered residues>
QLENADTGTLDTKSVVG [RPN2]

>  <protein stability index>
3.01

$$$$
>  <Ordered residues>
VVGVVGYVETPRGLRSL [RPL3]

>  <protein stability index>
2.68

$$$$
>  <Ordered residues>
SKFYNMKQPYVFVKKHH [SSN2]

>  <protein stability index>
1.5

$$$$
>  <Ordered residues>
QAPTELELQVAQAFVEL [RPS7A]

>  <protein stability index>
2.82

$$$$
>  <Ordered residues>
VSPNDNNSANNNAHSSD [YMR153W/NUP53]

>  <protein stability index>
2.84

$$$$
>  <Ordered residues>
TTSRFSKQVTDYYQSIY [FAS2]

>  <protein stability index>
2.87

$$$$
>  <Ordered residues>
FQVSNVISLGPNLATFI [YJL039C/NUP192]

>  <protein stability index>
1.99

$$$$
>  <Ordered residues>
VHKLRHYLVNLTSPAFG [GRR1]

>  <protein stability index>
1.38

$$$$
>  <Ordered residues>
TGAPPYYYNTKIYKLEN [YMR129W/POM152]

>  <protein stability index>
2.72

$$$$
>  <Ordered residues>
LQIVNQLPANMVHLYSI [RPC17]

>  <protein stability index>
1.9

$$$$
>  <Ordered residues>
TTVSNDLENSPLKTELE [SSN2]

>  <protein stability index>
3.16

$$$$
>  <Ordered residues>
KVNPNIMNMIENVEKKE [SMC2]

>  <protein stability index>
2.71

$$$$
>  <Ordered residues>
EKLLQQDREITNWARTT [MED8]

>  <protein stability index>
1.77

$$$$
>  <Ordered residues>
MINDENYIINDIKKNNK [SRB8]

>  <protein stability index>
2.97

$$$$
>  <Ordered residues>
FYMLNAGIRPKFILALN [RPN1]

>  <protein stability index>
1.81

$$$$
>  <Ordered residues>
FSWGRPADSTYGAYNTQ [PRE4]

>  <protein stability index>
2.68

$$$$
>  <Ordered residues>
QDEEQTEHLTELSDNEE [YCG1]

>  <protein stability index>
3.37

$$$$
>  <Ordered residues>
QNFAEEDDSSNSCFSDG [REC8]

>  <protein stability index>
2.59

$$$$
>  <Ordered residues>
NLTAGIIVAGYDDKNKG [PRE3]

>  <protein stability index>
2.75

$$$$
>  <Ordered residues>
DERSQGEKNFTSAHLKL [SMC4]

>  <protein stability index>
3.4

$$$$
>  <Ordered residues>
KNPRVTKEYLVQNLRSW [CSN9]

>  <protein stability index>
3

$$$$
>  <Ordered residues>
KISGGNDKQGFPMKQGV [RPS6A]

>  <protein stability index>
2.83

$$$$
>  <Ordered residues>
LERVKANAAKRAEAKAQ [RPL21A]

>  <protein stability index>
3.25

$$$$
>  <Ordered residues>
VTAKLLGFTPGELRSYL [FAS1]

>  <protein stability index>
2.97

$$$$
>  <Ordered residues>
FQLVNDVMDELITSSAR [SIR3]

>  <protein stability index>
2.9

$$$$
>  <Ordered residues>
ARDLLTRDEKDPKRLFE [RPS9A]

>  <protein stability index>
3.6

$$$$
>  <Ordered residues>
LDDEKIFSQTTNSTYNP [YJL039C/NUP192]

>  <protein stability index>
2.85

$$$$
>  <Ordered residues>
VSADDFVEEQNVYVLPK [PRP8]

>  <protein stability index>
3.18

$$$$
>  <Ordered residues>
KSLEDLSCQYDNTVRTS [RPO31]

>  <protein stability index>
1.31

$$$$

Source: the supplement of paper PMC9732359
